- study.target: Tubulin (Homo sapiens) (UniProt P68371+Q9H4B7+P0DPH7+P68366+Q13509+Q71U36+P04350+Q3ZCM7+P07437+P68363+Q9BQE3+Q6PEY2+Q13885+Q9BVA1+Q9BUF5)
- method.description: Binding affinity to tubulin (unknown origin) by fluorescence polarization displacement assay
- Format: protein-complex assay
value.type: relative binding affinity (RBA)

molecule=CCCO[C@H](C[C@H](C(C)C)N(C)C(=O)[C@@H](NC(=O)[C@H]1CCCCN1C)[C@@H](C)CC)c1nc(C(=O)N[C@@H](Cc2ccccc2)C[C@H](C)C(=O)O)cs1 value_type="relative binding affinity (RBA)" result=0.68
molecule=CCO[C@H](C[C@H](C(C)C)N(C)C(=O)[C@@H](NC(=O)[C@H]1CCCCN1C)[C@@H](C)OC)c1nc(C(=O)N[C@@H](Cc2ccccc2)C[C@H](C)C(=O)O)cs1 value_type="relative binding affinity (RBA)" result=0.03
molecule=CCO[C@H](C[C@H](C(C)C)N(C)C(=O)[C@H](C)NC(=O)[C@H]1CCCCN1C)c1nc(C(=O)N[C@@H](Cc2ccccc2)C[C@H](C)C(=O)O)cs1 value_type="relative binding affinity (RBA)" result=0.03
